Every entry's value here was drawn from paper PMC6627558.

Tested on: normal epithelial JB-6 cells
protocol text: Cytotoxicity against normal epithelial JB-6 cells (nonspecific esterase activity assay)
Type: cell-based, mouse
setup conditions: normal epithelial JB-6 cells
Excerpt: The museum tetraploid strain of murine ascite Ehrlich carcinoma cells from the All-Russian Oncology Center (Moscow, Russia) was used. The cells were separated from the ascites, which were collected on day 7 after inoculation in mouse CD-1 line. […] Cytotoxic activity against ascite form of mouse Ehrlich carcinoma cells was investigated by nonspecific esterase activity assay. […] Cytotoxic activity was expressed as the percent of cell viability. […]
experimental endpoint: pEC50
API: returns pEC50 as number; meaning -log10 of concentration in mol/L.

Which value of pEC50 has been reported for C=C(C)CCC[C@]1(C)OC(=O)[C@]23CC=C4[C@@H](CC[C@H]5C(C)(C)[C@@H](O[C@@H]6OC[C@@H](O)[C@H](O)[C@H]6O[C@@H]6O[C@H](C)[C@@H](O[C@@H]7O[C@H](COS(=O)(=O)[O-])[C@@H](O)[C@H](O[C@@H]8O[C@H](COS(=O)(=O)[O-])[C@@H](O)[C@H](OC)[C@H]8O)[C@H]7O)[C@H](O)[C@H]6O)CC[C@]45C)[C@]2(C)CC(=O)[C@@H]31.[Na+].[Na+] [Psolusoside A, reference compound] in the records?
5.12

* * *

Give EC50 for every item shown.
protocol text: Cytotoxic activity against ascite form of mouse Ehrlich carcinoma cells (nonspecific esterase / MTT assay)
Type: cell-based
setup conditions: ascite form of mouse Ehrlich carcinoma cells; read-out: Cytotoxicity EC50, Ehrlich carcinoma
Write the answer as a number in µM, unit excluded.

Which value of EC50 has been reported for C=C(C)CCC[C@]1(C)OC(=O)[C@]23CC=C4[C@@H](CC[C@H]5C(C)(C)[C@@H](O[C@@H]6OC[C@@H](O)[C@H](O)[C@H]6O[C@@H]6O[C@H](CO)[C@@H](O[C@@H]7O[C@H](COS(=O)(=O)O)[C@@H](O)[C@H](O[C@@H]8O[C@H](COS(=O)(=O)O)[C@@H](O)[C@H](OC)[C@H]8O)[C@H]7O)[C@H](O)[C@H]6O)CC[C@]45C)[C@]2(C)CC(=O)[C@@H]31 [Psolusoside G (4)] in the records?
98.3

Which value of EC50 has been reported for C=C(C)CCC[C@]1(C)OC(=O)[C@]23CC=C4[C@@H](CC[C@H]5C(C)(C)[C@@H](O[C@@H]6OC[C@@H](O)[C@H](O)[C@H]6O[C@@H]6O[C@H](C)[C@@H](O[C@@H]7O[C@H](COS(=O)(=O)O)[C@@H](O)[C@H](O[C@@H]8O[C@H](CO)[C@@H](O)[C@H](OC)[C@H]8O)[C@H]7O)[C@H](O)[C@H]6O)CC[C@]45C)[C@]2(C)CC(=O)[C@@H]31 [Psolusoside E (2)] in the records?
55.8

Which value of EC50 has been reported for C=C(C)CCC[C@]1(C)OC(=O)[C@]23CC[C@@H]4C(=CC[C@H]5C(C)(C)[C@@H](O[C@@H]6OC[C@@H](O[C@@H]7O[C@H](COS(=O)(=O)O)[C@@H](O)[C@H](O)[C@H]7O)[C@H](O)[C@H]6O[C@@H]6OC[C@@H](O[C@@H]7O[C@H](COS(=O)(=O)O)[C@@H](O)[C@H](O)[C@H]7O)[C@H](O)[C@H]6O)CC[C@]45C)[C@]2(C)C[C@H](OC(C)=O)[C@@H]31 [Psolusoside I (7)] in the records?
87.4

Which value of EC50 has been reported for C=C(C)CCC[C@]1(C)OC(=O)[C@]23CC[C@@H]4C(=CC[C@H]5C(C)(C)[C@@H](O[C@@H]6OC[C@@H](O)[C@H](O)[C@H]6O[C@@H]6O[C@H](CO)[C@@H](O[C@@H]7O[C@H](COS(=O)(=O)O)[C@@H](O)[C@H](O)[C@H]7O)[C@H](O)[C@H]6O)CC[C@]45C)[C@]2(C)CC[C@@H]31 [Psolusoside H1 (6)] in the records?
92.5

Which value of EC50 has been reported for C=C(C)CCC[C@]1(C)OC(=O)[C@]23CC=C4[C@@H](CC[C@H]5C(C)(C)[C@@H](O[C@@H]6OC[C@@H](O)[C@H](O)[C@H]6O[C@@H]6O[C@H](C)[C@@H](O[C@@H]7O[C@H](CO)[C@@H](O)[C@H](O[C@@H]8O[C@H](COS(=O)(=O)O)[C@@H](O)[C@H](OC)[C@H]8O)[C@H]7O)[C@H](O)[C@H]6O)CC[C@]45C)[C@]2(C)CC(=O)[C@@H]31 [Psolusoside F (3)] in the records?
96.2

* * *

protocol text: Hemolytic activity against mouse erythrocytes
Format: cell-based
setup conditions: CD-1, mouse erythrocyte suspension, pH 7.4, 24 h at 37 °C, read-out: Cytotoxicity EC50, Erhythrocytes (hemolytic activity)
I'd appreciate it if you marked entries class 1 when EC50 at 24 h is lower than 3 µM and class 0 when it is not.

Threshold test, EC50 at 24 h < 3 µM: C=C(C)CCC[C@]1(C)OC(=O)[C@]23CC=C4[C@@H](CC[C@H]5C(C)(C)[C@@H](O[C@@H]6OC[C@@H](O)[C@H](O)[C@H]6O[C@@H]6O[C@H](CO)[C@@H](O[C@@H]7O[C@H](COS(=O)(=O)O)[C@@H](O)[C@H](O[C@@H]8O[C@H](COS(=O)(=O)O)[C@@H](O)[C@H](OC)[C@H]8O)[C@H]7O)[C@H](O)[C@H]6O)CC[C@]45C)[C@]2(C)CC(=O)[C@@H]31 [Psolusoside G (4)]
class 0

Threshold test, EC50 at 24 h < 3 µM: C=C(C)CCC[C@]1(C)OC(=O)[C@]23CC[C@@H]4C(=CC[C@H]5C(C)(C)[C@@H](O[C@@H]6OC[C@@H](O[C@@H]7O[C@H](COS(=O)(=O)O)[C@@H](O)[C@H](O)[C@H]7O)[C@H](O)[C@H]6O[C@@H]6OC[C@@H](O[C@@H]7O[C@H](COS(=O)(=O)O)[C@@H](O)[C@H](O)[C@H]7O)[C@H](O)[C@H]6O)CC[C@]45C)[C@]2(C)C[C@H](OC(C)=O)[C@@H]31 [Psolusoside I (7)]
class 0

Threshold test, EC50 at 24 h < 3 µM: C=C(C)CCC[C@]1(C)OC(=O)[C@]23CC[C@@H]4C(=CC[C@H]5C(C)(C)[C@@H](O[C@@H]6OC[C@@H](O)[C@H](O)[C@H]6O[C@@H]6O[C@H](CO)[C@@H](O[C@@H]7O[C@H](COS(=O)(=O)O)[C@@H](O)[C@H](O)[C@H]7O)[C@H](O)[C@H]6O)CC[C@]45C)[C@]2(C)CC[C@@H]31 [Psolusoside H1 (6)]
class 1

Threshold test, EC50 at 24 h < 3 µM: C=C(C)CCC[C@]1(C)OC(=O)[C@]23CC=C4[C@@H](CC[C@H]5C(C)(C)[C@@H](O[C@@H]6OC[C@@H](O)[C@H](O)[C@H]6O[C@@H]6O[C@H](C)[C@@H](O[C@@H]7O[C@H](CO)[C@@H](O)[C@H](O[C@@H]8O[C@H](COS(=O)(=O)O)[C@@H](O)[C@H](OC)[C@H]8O)[C@H]7O)[C@H](O)[C@H]6O)CC[C@]45C)[C@]2(C)CC(=O)[C@@H]31 [Psolusoside F (3)]
class 1

Threshold test, EC50 at 24 h < 3 µM: C=C(C)CCC[C@]1(C)OC(=O)[C@]23CC=C4[C@@H](CC[C@H]5C(C)(C)[C@@H](O[C@@H]6OC[C@@H](O)[C@H](O)[C@H]6O[C@@H]6O[C@H](C)[C@@H](O[C@@H]7O[C@H](COS(=O)(=O)O)[C@@H](O)[C@H](O[C@@H]8O[C@H](CO)[C@@H](O)[C@H](OC)[C@H]8O)[C@H]7O)[C@H](O)[C@H]6O)CC[C@]45C)[C@]2(C)CC(=O)[C@@H]31 [Psolusoside E (2)]
class 1

Threshold test, EC50 at 24 h < 3 µM: C=C(C)CCC[C@]1(C)OC(=O)[C@]23CC[C@@H]4C(=CC[C@H]5C(C)(C)[C@@H](O[C@@H]6OC[C@@H](O)[C@H](O)[C@H]6O[C@@H]6O[C@H](CO)[C@@H](O[C@@H]7O[C@H](COS(=O)(=O)O)[C@@H](O)[C@H](O)[C@H]7O)[C@H](O)[C@H]6O)CC[C@]45C)[C@]2(C)CC(=O)[C@@H]31 [Psolusoside H (5)]
class 1

* * *

Test system: human colorectal adenocarcinoma HT-29 cells
protocol text: Soft agar assay, colony formation and growth of HT-29 cells
Type: cell-based
setup conditions: Homo sapiens, 336 h, 0–10 μM, 14 days, read-out: Soft Agar Assay ICCF50 (inhibition of colony formation)
Give IC50 for every item shown.
Write the answer as a number in µM, unit excluded.

Lab note: need IC50 for C=C(C)CCC[C@]1(C)OC(=O)[C@]23CC=C4[C@@H](CC[C@H]5C(C)(C)[C@@H](O[C@@H]6OC[C@@H](O)[C@H](O)[C@H]6O[C@@H]6O[C@H](C)[C@@H](O[C@@H]7O[C@H](COS(=O)(=O)O)[C@@H](O)[C@H](O[C@@H]8O[C@H](CO)[C@@H](O)[C@H](OC)[C@H]8O)[C@H]7O)[C@H](O)[C@H]6O)CC[C@]45C)[C@]2(C)CC(=O)[C@@H]31 [Psolusoside E (2)] on human colorectal adenocarcinoma HT-29 cells, anyone have it?
0.1

Lab note: need IC50 for C=C(C)CCC[C@]1(C)OC(=O)[C@]23CC[C@@H]4C(=CC[C@H]5C(C)(C)[C@@H](O[C@@H]6OC[C@@H](O)[C@H](O)[C@H]6O[C@@H]6O[C@H](CO)[C@@H](O[C@@H]7O[C@H](COS(=O)(=O)O)[C@@H](O)[C@H](O)[C@H]7O)[C@H](O)[C@H]6O)CC[C@]45C)[C@]2(C)CC[C@@H]31 [Psolusoside H1 (6)] on human colorectal adenocarcinoma HT-29 cells, anyone have it?
9
